Target: fatty acyl CoA:cholesterol acyl transferase (ACAT) (Rattus norvegicus)
Construct: Rat adrenals were homogenized in 0.2M monobasic potassium phosphate buffer; from tissue; host or cells: rat adrenals, 1000 x g supernatant containing the microsomal fraction
Sequence (O70536 1-545): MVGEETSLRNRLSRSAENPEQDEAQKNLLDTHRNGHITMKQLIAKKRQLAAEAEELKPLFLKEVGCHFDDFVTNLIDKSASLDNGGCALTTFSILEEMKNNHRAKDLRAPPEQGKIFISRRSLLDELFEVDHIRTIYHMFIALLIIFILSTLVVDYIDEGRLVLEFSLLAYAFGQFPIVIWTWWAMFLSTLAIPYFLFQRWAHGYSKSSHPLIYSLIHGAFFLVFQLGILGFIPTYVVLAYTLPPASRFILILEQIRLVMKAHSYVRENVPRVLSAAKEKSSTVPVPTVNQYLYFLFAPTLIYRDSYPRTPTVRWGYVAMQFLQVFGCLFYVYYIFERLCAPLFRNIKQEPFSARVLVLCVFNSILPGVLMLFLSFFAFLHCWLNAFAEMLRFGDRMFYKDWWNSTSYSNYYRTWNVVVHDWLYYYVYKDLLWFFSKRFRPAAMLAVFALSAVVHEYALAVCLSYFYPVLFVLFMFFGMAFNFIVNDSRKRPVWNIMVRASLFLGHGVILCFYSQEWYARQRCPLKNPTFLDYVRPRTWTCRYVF
Test: In vitro inhibition of fatty acyl CoA:cholesterol acyl transferase (ACAT), rat adrenal supernatant
Assay type: biochemical
Conditions: test compound final concentration 5.2 g./ml. (so in the source), pH 7.4, 37° C., 10 minutes
readoutType: % Inhibition (ACAT) (%)
Quick note: give the figure in %, leave out the unit.

What does the data say about its % Inhibition (ACAT)? Entry: CCCCN(Cc1ccccc1)C(=O)N(c1ccccc1)c1ccccc1
75.9

Please answer likewise for CCCCN(Cc1ccccc1)C(=O)N(CCCC)Cc1ccccc1
95.4

Please answer likewise for CCCCN(Cc1ccccc1)C(=O)N(c1ccccc1)c1cccc2ccccc12
76.3

Please answer likewise for CCCCN(Cc1ccccc1)C(=O)N(c1cccc(Cl)c1)c1ccc2ccccc2c1
82.7

Please answer likewise for CCCCN(Cc1ccccc1)C(=O)N(c1ccccc1)c1ccc2ccccc2c1
83.6

Please answer likewise for CCCCN(Cc1ccccc1)C(=O)N(c1ccccc1)c1cccc(OC)c1
82.5

Please answer likewise for CCCCN(Cc1ccccc1)C(=O)N(c1ccc2ccccc2c1)c1ccc2ccccc2c1
93.2

Please answer likewise for CCCCN(Cc1ccccc1)C(=O)N(c1ccccc1)c1cccc(C)c1
82.0

Please answer likewise for CCCCN(Cc1ccccc1)C(=O)N(c1ccccc1)c1ccc(OC(C)C)cc1
77.8

Please answer likewise for CCCCN(Cc1ccccc1)C(=O)N(Cc1ccccc1)c1ccccc1
81.8

Please answer likewise for CCCCN(Cc1ccccc1)C(=O)N(c1ccccc1)c1cccc(Cl)c1
72.3
